# tested-on: Met kinase (Homo sapiens)
# assay-notes: Met kinase inhibition, cellular assay
# Assay type: cell-based
# reported-conditions: read-out: Cellular assay IC50 (cell)
measurement-label: IC50

Some solved cases for reference:
{"compound": "Clc1ccc2nnn(Cc3cccc(-c4ncc(OCCN5CCOCC5)cn4)c3)c2n1 [Compound A48]", "result": "100 to 10000 nM"}
{"compound": "N#Cc1cccc(-c2cnc3nnn(Cc4cccc(-c5ncc(-c6cnn(CCN7CCCC7)c6)cn5)c4)c3n2)c1 [Compound B21]", "result": "1 to 100 nM"}
{"compound": "N#Cc1cccc(-c2cnc3nnn(Cc4cccc(-c5ncc(OCC6CCNCC6)cn5)c4)c3n2)c1 [Compound A30]", "result": "1 to 100 nM"}
{"compound": "c1cc(Cn2nnc3ccccc32)cc(-c2ncc(OCCN3CCOCC3)cn2)c1 [Compound A3]", "result": "100 to 10000 nM"}
{"compound": "Cn1cc(-c2cnc3nnn(Cc4cccc(-c5ncc(OCCCN6CCOCC6)cn5)c4)c3n2)cn1 [Compound B18]", "result": "1 to 100 nM"}

Any idea what IC50 was measured for N#Cc1cccc(Oc2cnc3nnn(Cc4cccc(-c5ncc(Br)cn5)c4)c3n2)c1 [Compound B6] ?
1 to 100 nM

Any idea what IC50 was measured for Cn1cc(-c2cnc3nnn(Cc4cccc(-c5ncc(OCC6CNCCO6)cn5)c4)c3n2)cn1 (centres unmarked) [Compound B20] ?
1 to 100 nM

Any idea what IC50 was measured for Cn1cc(Oc2cnc3nnn(Cc4cccc(-c5ncc(Br)cn5)c4)c3n2)cn1 [Compound B5] ?
1 to 100 nM

----------
# tested-on: Met kinase (Homo sapiens, UniProt P08581)
# Sequence (P08581 25-1390): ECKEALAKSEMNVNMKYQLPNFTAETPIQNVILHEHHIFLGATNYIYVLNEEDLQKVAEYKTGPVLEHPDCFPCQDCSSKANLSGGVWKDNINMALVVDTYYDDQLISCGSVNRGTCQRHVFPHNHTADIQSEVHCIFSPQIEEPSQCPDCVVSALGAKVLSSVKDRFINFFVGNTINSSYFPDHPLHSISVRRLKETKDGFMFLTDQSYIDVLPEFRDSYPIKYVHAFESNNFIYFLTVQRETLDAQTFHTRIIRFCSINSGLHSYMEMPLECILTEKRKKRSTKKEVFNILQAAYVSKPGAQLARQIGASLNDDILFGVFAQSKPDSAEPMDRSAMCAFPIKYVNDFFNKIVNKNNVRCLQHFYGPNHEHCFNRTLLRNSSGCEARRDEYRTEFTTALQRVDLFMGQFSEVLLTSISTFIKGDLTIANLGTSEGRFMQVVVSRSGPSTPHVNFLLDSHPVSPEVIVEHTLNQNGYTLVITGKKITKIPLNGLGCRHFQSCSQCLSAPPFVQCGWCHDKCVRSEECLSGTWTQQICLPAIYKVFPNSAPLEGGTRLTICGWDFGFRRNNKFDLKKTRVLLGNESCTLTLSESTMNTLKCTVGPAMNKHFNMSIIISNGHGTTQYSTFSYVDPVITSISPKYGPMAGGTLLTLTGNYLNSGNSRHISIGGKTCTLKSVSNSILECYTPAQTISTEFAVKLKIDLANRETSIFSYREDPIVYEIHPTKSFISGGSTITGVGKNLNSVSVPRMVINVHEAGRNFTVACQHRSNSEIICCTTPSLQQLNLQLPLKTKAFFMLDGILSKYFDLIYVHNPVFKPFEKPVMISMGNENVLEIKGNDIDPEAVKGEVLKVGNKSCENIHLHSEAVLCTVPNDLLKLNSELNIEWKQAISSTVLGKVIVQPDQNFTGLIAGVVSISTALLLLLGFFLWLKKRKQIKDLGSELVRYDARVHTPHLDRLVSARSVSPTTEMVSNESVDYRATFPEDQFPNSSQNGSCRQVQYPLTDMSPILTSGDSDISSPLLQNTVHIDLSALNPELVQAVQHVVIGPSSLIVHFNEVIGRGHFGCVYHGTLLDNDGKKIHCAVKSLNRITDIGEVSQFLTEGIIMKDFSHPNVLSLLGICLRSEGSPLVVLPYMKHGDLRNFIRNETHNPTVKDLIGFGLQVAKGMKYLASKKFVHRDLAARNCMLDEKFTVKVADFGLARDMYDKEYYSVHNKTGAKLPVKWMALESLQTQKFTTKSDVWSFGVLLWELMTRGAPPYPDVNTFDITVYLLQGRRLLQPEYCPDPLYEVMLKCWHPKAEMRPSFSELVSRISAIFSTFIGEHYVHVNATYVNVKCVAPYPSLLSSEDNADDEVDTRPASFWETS
# assay-notes: Met kinase inhibition, cellular assay
# Type: cell-based
# reported-conditions: read-out: Cellular assay IC50 (cell)
pIC50: −log10 of the molar value.
measurement-label: pIC50

Some solved cases for reference:
{"smiles-input": "Brc1cnc2nnn(Cc3cccc(-c4ncc(OCCN5CCOCC5)cn4)c3)c2n1", "result": "7.00 to 9.00"}
{"smiles-input": "CN1CCN(CCOc2cnc(-c3cccc(Cn4nnc5ncc(-c6cnn(C)c6)nc54)c3)nc2)CC1", "result": "7.00 to 9.00"}

// next item, pIC50 requested
Any idea what pIC50 was measured for `COCCOc1cnc(-c2cccc(Cn3nnc4ncc(-c5cnn(C)c5)nc43)c2)nc1` ?
7.00 to 9.00
